# Lookup of reported EC50 keyed by entry
assay_system: soluble guanylate cyclase (sGC) (Homo sapiens, UniProt Q02108+Q02153)
Construct: endogenously expressing soluble guanylate cyclase (sGC); endogenous in cells; host or cells: HEK293
Sequence (Q02153 1-619): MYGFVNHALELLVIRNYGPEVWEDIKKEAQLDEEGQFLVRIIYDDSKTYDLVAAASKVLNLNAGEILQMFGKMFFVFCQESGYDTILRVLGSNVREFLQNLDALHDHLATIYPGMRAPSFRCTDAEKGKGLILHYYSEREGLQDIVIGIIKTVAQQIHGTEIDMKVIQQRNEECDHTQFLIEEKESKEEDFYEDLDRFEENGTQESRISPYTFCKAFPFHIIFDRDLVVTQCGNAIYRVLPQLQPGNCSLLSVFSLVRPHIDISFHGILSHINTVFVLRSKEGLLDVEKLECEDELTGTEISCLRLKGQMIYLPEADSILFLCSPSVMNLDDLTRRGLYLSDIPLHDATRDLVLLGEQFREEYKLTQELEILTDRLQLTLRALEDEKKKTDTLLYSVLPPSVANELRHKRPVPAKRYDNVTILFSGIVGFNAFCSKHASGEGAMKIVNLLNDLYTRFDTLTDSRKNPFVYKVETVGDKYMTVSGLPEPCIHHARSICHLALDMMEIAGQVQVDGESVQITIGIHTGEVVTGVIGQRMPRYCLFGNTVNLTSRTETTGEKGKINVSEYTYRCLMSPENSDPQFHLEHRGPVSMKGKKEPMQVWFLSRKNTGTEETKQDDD
Sequence (Q02108 1-690): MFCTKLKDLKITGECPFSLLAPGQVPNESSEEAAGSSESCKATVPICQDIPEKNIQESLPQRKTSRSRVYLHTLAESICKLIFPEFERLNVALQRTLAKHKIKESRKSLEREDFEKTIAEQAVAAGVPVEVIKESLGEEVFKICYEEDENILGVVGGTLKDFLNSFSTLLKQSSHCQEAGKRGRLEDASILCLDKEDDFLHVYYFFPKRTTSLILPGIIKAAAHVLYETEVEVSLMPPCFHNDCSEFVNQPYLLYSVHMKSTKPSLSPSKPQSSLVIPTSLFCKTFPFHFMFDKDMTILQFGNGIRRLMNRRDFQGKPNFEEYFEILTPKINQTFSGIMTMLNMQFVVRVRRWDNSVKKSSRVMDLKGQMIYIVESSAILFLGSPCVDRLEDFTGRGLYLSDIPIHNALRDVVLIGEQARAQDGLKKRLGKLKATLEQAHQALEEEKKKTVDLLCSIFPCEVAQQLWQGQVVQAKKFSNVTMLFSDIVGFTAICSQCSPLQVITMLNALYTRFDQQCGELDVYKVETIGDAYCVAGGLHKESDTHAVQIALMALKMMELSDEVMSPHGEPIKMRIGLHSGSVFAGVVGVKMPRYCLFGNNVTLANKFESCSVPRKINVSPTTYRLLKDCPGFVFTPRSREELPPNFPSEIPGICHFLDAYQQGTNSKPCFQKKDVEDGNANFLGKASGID
method_notes: sGC-HEK-cGMP assay with LC/MS detection
Format: cell-based
conditions_used: HEK293 whole cells, LC/MS detection of cGMP, 10 μM DETA-NONOate; 50% of high control response (30 μM Compound Y); read-out: Absolute EC50 (nM)- binned (~)

Reference set, count: 5
- molecule: "CC(=O)c1cc(-c2ncc(F)c(NCC(C)(O)C(N)=O)n2)nn1Cc1ccccc1F (stereo not drawn) [Compound 193]"
  EC50: "> 1000 nM"
- molecule: "NC(=O)CC(=O)Nc1ccnc(-c2cc(-c3ccon3)n(Cc3ccccc3F)n2)n1 [Compound 17]"
  EC50: "> 30000 nM"
- molecule: "CC(=O)c1cc(-c2ncc(F)c(NCc3cc(=O)[nH]o3)n2)nn1Cc1ccccc1F [Compound 70]"
  EC50: "100 to 1000 nM"
- molecule: "O=[N+]([O-])c1cnc(-c2cc(-c3ccon3)n(Cc3ccccc3F)n2)nc1NCCO [Compound 7]"
  EC50: "> 30000 nM"
- molecule: "OCC(CCCC(F)(F)F)Nc1nc(-c2cc(-c3ccon3)n(Cc3ccccc3F)n2)ncc1F (stereo not drawn) [Compound 127]"
  EC50: "< 100 nM"

// switching to the query molecule
Exercise: Look at this molecule and give its reported EC50. Fc1ccccc1Cn1nc(-c2ncc(F)c(N3CCCO3)n2)cc1-c1ccon1 [Compound 16]
Solution: 100 to 1000 nM

====

assay_system: soluble guanylate cyclase (sGC) (Homo sapiens, UniProt Q02108+Q02153)
Construct: endogenously expressing soluble guanylate cyclase (sGC); endogenous in cells; host or cells: HEK293
method_notes: sGC-HEK-cGMP assay with LC/MS detection
Assay type: cell-based
conditions_used: HEK293 whole cells, LC/MS detection of cGMP, 10 μM DETA-NONOate; 50% of high control response (30 μM Compound Y); read-out: Absolute EC50 (nM)- binned (~)
reported_property: EC50

Reference set, count: 2
- compound: "CC(=O)c1cc(-c2ncc(F)c(N3CC(F)(F)C3)n2)nn1Cc1ccccc1F"
  reported_property: "EC50"
  experimental_value: "> 1000 nM"
- compound: "NC(=O)C1CCN(c2nc(-c3cc(-c4ccon4)n(Cc4ccccc4F)n3)ncc2F)CC1"
  reported_property: "EC50"
  experimental_value: "< 100 nM"

// switching to the query compound
Exercise: Look at this compound and give its reported EC50. NC(=O)C(O)(CNc1nc(-c2cc(-c3ncco3)n(Cc3ccccc3F)n2)ncc1F)C(F)(F)F (stereo not drawn)
Solution: 100 to 1000 nM

====

# Lookup of reported EC50 keyed by entry
assay_system: soluble guanylate cyclase (sGC) (Homo sapiens, UniProt Q02108+Q02153)
Construct: endogenously expressing soluble guanylate cyclase (sGC); endogenous in cells; host or cells: HEK293
method_notes: sGC-HEK-cGMP assay with LC/MS detection
Assay type: cell-based
conditions_used: HEK293 whole cells, LC/MS detection of cGMP, 10 μM DETA-NONOate; 50% of high control response (30 μM Compound Y); read-out: Absolute EC50 (nM)- binned (~)

- compound: "CCOC(=O)[C@H](CN(C)c1nc(-c2cc(C(C)=O)n(Cc3ccccc3F)n2)ncc1F)C(C)C [Compound 74]"
  EC50: "100 to 1000 nM"
- compound: "NC(=O)C(=O)Nc1ccnc(-c2cc(-c3ccon3)n(Cc3ccccc3F)n2)n1 [Compound 4]"
  EC50: "> 1000 nM"

// switching to the query compound
Exercise: Look at this compound and give its reported EC50. CCC[C@H](CO)Nc1nc(-c2cc(-c3ccon3)n(Cc3ccccc3F)n2)ncc1F [Compound 152]
Solution: < 100 nM

====

assay_system: soluble guanylate cyclase (sGC) (Homo sapiens, UniProt Q02108+Q02153)
Construct: endogenously expressing soluble guanylate cyclase (sGC); endogenous in cells; host or cells: HEK293
Sequence (Q02153 1-619): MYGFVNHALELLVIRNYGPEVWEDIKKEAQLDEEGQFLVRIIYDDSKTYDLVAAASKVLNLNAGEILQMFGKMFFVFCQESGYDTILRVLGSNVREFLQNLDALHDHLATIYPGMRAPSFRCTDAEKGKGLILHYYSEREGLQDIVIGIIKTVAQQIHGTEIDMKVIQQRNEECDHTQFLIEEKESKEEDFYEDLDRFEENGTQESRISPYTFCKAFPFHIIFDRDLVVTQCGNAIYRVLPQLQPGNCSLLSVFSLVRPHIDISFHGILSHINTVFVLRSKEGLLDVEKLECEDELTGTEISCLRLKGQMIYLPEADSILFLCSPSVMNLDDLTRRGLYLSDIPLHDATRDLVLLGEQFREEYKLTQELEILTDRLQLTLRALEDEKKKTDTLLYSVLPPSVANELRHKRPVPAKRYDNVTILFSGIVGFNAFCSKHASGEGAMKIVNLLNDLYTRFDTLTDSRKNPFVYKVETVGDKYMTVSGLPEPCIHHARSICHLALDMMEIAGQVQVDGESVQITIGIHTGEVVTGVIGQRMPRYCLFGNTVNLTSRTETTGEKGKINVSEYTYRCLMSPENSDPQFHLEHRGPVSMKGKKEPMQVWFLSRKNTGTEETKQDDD
Sequence (Q02108 1-690): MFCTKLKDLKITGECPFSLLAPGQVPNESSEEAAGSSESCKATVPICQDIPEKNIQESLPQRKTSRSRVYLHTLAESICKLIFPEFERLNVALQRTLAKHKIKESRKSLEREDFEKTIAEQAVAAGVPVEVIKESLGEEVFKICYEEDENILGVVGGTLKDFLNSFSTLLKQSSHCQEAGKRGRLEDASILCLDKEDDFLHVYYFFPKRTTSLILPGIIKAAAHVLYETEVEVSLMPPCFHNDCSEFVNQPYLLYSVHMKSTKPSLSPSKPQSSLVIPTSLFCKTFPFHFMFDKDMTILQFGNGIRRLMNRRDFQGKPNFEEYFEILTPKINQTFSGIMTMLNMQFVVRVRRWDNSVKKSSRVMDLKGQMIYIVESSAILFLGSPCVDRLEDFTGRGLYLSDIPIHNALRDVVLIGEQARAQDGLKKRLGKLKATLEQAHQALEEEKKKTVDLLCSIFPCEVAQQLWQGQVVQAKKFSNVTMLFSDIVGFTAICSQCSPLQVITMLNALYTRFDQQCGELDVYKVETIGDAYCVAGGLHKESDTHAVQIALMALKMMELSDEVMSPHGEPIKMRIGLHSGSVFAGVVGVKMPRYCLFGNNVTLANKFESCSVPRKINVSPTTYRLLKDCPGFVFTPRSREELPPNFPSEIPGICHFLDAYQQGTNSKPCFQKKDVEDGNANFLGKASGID
method_notes: sGC-HEK-cGMP assay with LC/MS detection
Format: cell-based
conditions_used: HEK293 whole cells, LC/MS detection of cGMP, 10 μM DETA-NONOate; 50% of high control response (30 μM Compound Y); read-out: Absolute EC50 (nM)- binned (~)
# Lookup of reported EC50 keyed by entry

Reference set, count: 8
- molecule: "OC(CNc1nc(-c2cc(-c3ccon3)n(Cc3ccccc3F)n2)ncc1F)(c1nnc(C2CC2)o1)C(F)(F)F (stereo not drawn)"
  EC50: "< 100 nM"
- molecule: "CCC(C)(N)CNc1nc(-c2cc(-c3ccon3)n(Cc3ccccc3F)n2)ncc1F (stereo not drawn)"
  EC50: "100 to 1000 nM"
- molecule: "O=C(Cc1c[nH]nc1O)Nc1ccnc(-c2cc(-c3ccon3)n(Cc3ccccc3F)n2)n1"
  EC50: "> 1000 nM"
- molecule: "Nc1nnc(C(O)(CNc2nc(-c3cc(-c4ccon4)n(Cc4ccccc4F)n3)ncc2F)C(F)(F)F)o1 (stereo not drawn)"
  EC50: "100 to 1000 nM"
- molecule: "Fc1ccccc1Cn1nc(-c2ncc(F)c(Nc3nnc(C(F)(F)F)[nH]3)n2)cc1-c1ccon1"
  EC50: "> 30000 nM"
- molecule: "CC(=O)c1cc(-c2ncc(F)c(N3CC[C@H](O)[C@H](O)C3)n2)nn1Cc1ccccc1F"
  EC50: "100 to 1000 nM"
- molecule: "CC(C)(C(N)=O)C(=O)Nc1nc(-c2cc(-c3ccon3)n(Cc3ccccc3F)n2)ncc1F"
  EC50: "> 1000 nM"
- molecule: "C[C@](N)(CNc1nc(-c2cc(-c3ccon3)n(Cc3ccccc3F)n2)ncc1F)C(F)(F)F"
  EC50: "100 to 1000 nM"

// switching to the query molecule
Exercise: Look at this molecule and give its reported EC50. `CC(C)[C@H](CO)Nc1nc(-c2cc(-c3ccon3)n(Cc3ccccc3F)n2)ncc1F`
Solution: < 100 nM
